Target: Hepatocyte nuclear factor 3-beta (Homo sapiens)
Assay: ATG_FoxA2_CIS: Attagene CIS-FACTORIAL HepG2 Assay for human Forkhead box A2 (FOXA2) (AID 2282942)
Conditions: HepG2 cis-reporter transcription factor activity, 24 h; actives raise or lower the signal
Calls of active or inactive are those of the source. How the source made its calls: active means hit-call score of the fitted dose curve at least 0.9, where 1 is the maximum; inactive means score below 0.9.
Select the correct class. Options are True (active), False (inactive) and nothing else.

Sample answers from the record:
compound	tgt	class
c1cc[c]([Bi]([c]2ccccc2)[c]2ccccc2)cc1	Hepatocyte nuclear factor 3-beta (Homo sapiens)	False
CCCCCCC1CCC(=O)O1 (stereo not given)	Hepatocyte nuclear factor 3-beta (Homo sapiens)	False
CCCCC(CC)COC(=O)CS (stereo not given)	Hepatocyte nuclear factor 3-beta (Homo sapiens)	False
O=C(O)/C=C/C(=O)O	Hepatocyte nuclear factor 3-beta (Homo sapiens)	False
CN(C)Cc1cc(C(C)(C)C)c(O)c(C(C)(C)C)c1	Hepatocyte nuclear factor 3-beta (Homo sapiens)	False

Enquiry: How was `CN(C)c1ccc(C(c2ccccc2)c2ccc(N(C)C)cc2)cc1` classified in this test?
Return: False

* * *

Assay: CCTE_Shafer_MEA_dev_active_electrodes_number: CCTE's Neural Network Formation Assay for Number of Active Electrodes, Shafer Lab (AID 2284040)
Results filed as inconclusive are left out. Calls of active or inactive are those of the source. How the source made its calls: active means hit-call score of the fitted dose curve at least 0.9, where 1 is the maximum; inconclusive means response in the unintended direction; inactive means score below 0.9.
Choose one outcome from this list and give only that: active, inactive

compound	class
NC(N)=Nc1nc(CSCCC(N)=NS(N)(=O)=O)cs1	inactive
c1ccc2cc3c4ccccc4c4ccccc4c3cc2c1	inactive
CC(C)(C)NCC(O)c1cc(O)cc(O)c1 (configuration not stated)	inactive
CC1(C)S[C@@H]2[C@H](NC(=O)[C@H](N)c3ccc(O)cc3)C(=O)N2[C@H]1C(=O)O	inactive

Enquiry: // return assay outcome for `c1cc2ccc3ccc4ccc5cccc6c(c1)c2c3c4c56`
Return: inactive

Enquiry: Also `Cc1c(O)cccc1C(=O)N[C@@H](CSc1ccccc1)[C@H](O)CN1C[C@H]2CCCC[C@H]2C[C@H]1C(=O)NC(C)(C)C` ?
Return: active

Enquiry: Do the same for `COc1ccc2cc3[n+](cc2c1OC)CCc1cc2c(cc1-3)OCO2` please
Return: active

* * *

Test: TOX21_p53_BLA_p4_viability: Viability Assessment in the Tox21 HCT-116 p53 Agonism Beta-lactamase Assay, Phase 4 (AID 2283597);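 further: hits lower the luminescence signal meaning cytotoxicity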
Records with an inconclusive call do not appear. The source made the active and inactive calls. The calls were made as follows: active = hit-call score of the fitted dose curve at least 0.9, where 1 is the maximum; inconclusive = response in the unintended direction; inactive = score below 0.9.
measurement-type: outcome

compound	outcome
OCCSc1ccccc1	inactive
CCCCCCCCCCCCCCCC(=O)O[C@@H]1[C@@H](O)[C@@H](O)[C@@H]([C@H](NC(=O)[C@@H]2C[C@@H](CCC)CN2C)[C@H](C)Cl)O[C@@H]1SC	inactive
O=C(CO)[C@@H](O)[C@H](O)[C@@H](O)C(=O)O	inactive
Clc1ccc(COC(Cn2ccnc2)c2ccc(Cl)cc2Cl)c(Cl)c1 (stereo unspecified)	inactive
Cc1c(N(C)CS(=O)(=O)O)c(=O)n(-c2ccccc2)n1C	inactive
CC(Cl)C(Cl)Cl (stereo unspecified)	inactive
CCCCCCC/C=C/C=O	inactive
O=S(=O)(O)C(F)(F)F	inactive

Enquiry: Value lookup for outcome; key = `C[C@@H](O)[C@H]1C(=O)N2C(C(=O)O)=C(S[C@@H]3CN[C@H](C(=O)N(C)C)C3)[C@H](C)[C@H]12`
Return: inactive

Enquiry: What do we get for `Cc1ccc2nc(-c3ccc(N)cc3)sc2c1S(=O)(=O)O` ?
Return: inactive

Enquiry: # iterate: `O=C(O)c1cc(-c2ccc(F)cc2F)ccc1O`
Return: inactive
